target: full length active recombinant SYK enzyme (Homo sapiens, UniProt P43405); construct: full length active recombinant SYK enzyme (Millipore, Calif.); experiment: Inhibition of Syk tyrosine phosphorylation activity (LANCE TR-FRET kinase assay); conditions: 1 nM SYK, 550 nM substrate, 100 μM ATP, 1 hour room temperature
pIC50: −log10 of the molar value.
readout_kind: pIC50

Cc1csc(Nc2nc(N[C@@H](C(N)=O)C(C)C)ncc2C(N)=O)c1 [Example 195] :: 8.00 to 9.00

Query string: Query pIC50 on full length active recombinant SYK enzyme (Homo sapiens, UniProt P43405) for NC(=O)c1cnc(N[C@@H]2CCC[C@H](F)[C@@H]2N)nc1Nc1cccc(-n2cccn2)c1 [Example 238]
Result string: 7.00 to 8.00

Query string: // fetch full length active recombinant SYK enzyme (Homo sapiens, UniProt P43405) pIC50 for NC(=O)c1cnc(N[C@@H]2CCOC[C@@H]2N)nc1Nc1csc2ncccc12 [Example 179]
Result string: 7.00 to 8.00

Query string: Short answer please: pIC50, full length active recombinant SYK enzyme (Homo sapiens, UniProt P43405), entry CC(C)[C@@H](Nc1ncc(C(N)=O)c(Nc2cnc3ccccc3c2)n1)C1(N)CC1 [Example 158]
Result string: 8.00 to 9.00
